system: wild-type 4HPA3H (Escherichia coli, UniProt Q57160)
Construct: made in house; host or cells: E. coli BL21(DE3)
protocol.text: In vitro hydroxylation by the 4HPA3H/PrnF/FDH system, wild-type 4HPA3H
Format: biochemical, E. coli
conditions.used: substrate 1 mM, purified wild-type 4HPA3H, optimized conditions
experimental.readout: product yield

O=C(O)/C=C/c1ccc(O)cc1 [Compound 1, p-coumaric acid] = high
CC(=O)CCc1ccc(O)cc1 [Compound 15, rheosmin] = high
O=c1ccc2ccc(O)cc2o1 [Compound 13, umbelliferone] = high
Oc1ccc2c(c1)[nH]c1ccccc12 [Compound 11, 2-hydroxycarbazole] = low
O=C(O)c1ccc(O)cc1 [Compound 9, p-hydroxybenzoic acid] = low

====

system: 4HPA3H (Escherichia coli, UniProt Q57160)
Construct: expressed in transfected cells; host or cells: E. coli BL21(DE3)
protocol.text: Whole-cell hydroxylation, cells expressing wild-type 4HPA3H
Format: cell-based, E. coli
conditions.used: BL21(DE3) cells expressing wild-type 4HPA3H
experimental.readout: acceptance as substrate

COc1cc(/C=C/C(=O)O)ccc1O = not accepted
O=C1C[C@@H](c2ccc(O)cc2)Oc2cc(O)cc(O)c21 = not accepted
Nc1ccc(C=CC(=O)O)cc1 = no substrates
COc1ccc(C=CC(=O)O)cc1 = no substrates
